Where do the numbers come from? From PubChem BioAssay AID651783.

# tested.system: Trace amine-associated receptor 1 (Homo sapiens) (UniProt Q96RJ0)
# Sequence (Q96RJ0 whole entry, looked up): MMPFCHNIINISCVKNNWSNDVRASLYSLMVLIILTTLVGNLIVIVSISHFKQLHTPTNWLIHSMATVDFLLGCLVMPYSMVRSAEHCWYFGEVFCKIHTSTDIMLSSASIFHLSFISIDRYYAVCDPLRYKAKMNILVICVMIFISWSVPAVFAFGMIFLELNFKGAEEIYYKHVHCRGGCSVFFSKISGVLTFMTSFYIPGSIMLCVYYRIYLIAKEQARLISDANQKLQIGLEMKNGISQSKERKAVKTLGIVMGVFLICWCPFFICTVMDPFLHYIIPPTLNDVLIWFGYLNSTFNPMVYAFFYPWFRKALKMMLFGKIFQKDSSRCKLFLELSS
# measurement.description: activators of TAAR1 calcium signal, triplicate retest – Fluo-8 calcium fluorescence, CHO RD-HGA16 cells, confirmation (AID 651783);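 note: promiscuous G-alpha-16 overexpression reroutes TAAR1 signalling from cAMP to calcium; peak fluorescence divided by basal pre-compound fluorescence per well; 0% = DMSO wells and 100% = phenethylamine at EC100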
# measurement.parameters: CHO RD-HGA16 TAAR1, Fluo-8 calcium fluorescence; at 3 µM; hits give high values; scaled: DMSO 0%, maximal phenethylamine 100%
The campaign covered roughly 2,400 compounds. About 2,000 (83%) were called active. So high a share suggests a set chosen from earlier hits. Not all results are given here.
Below, each entry is listed alongside its reported activation.
Write the answer as a number in %, unit excluded.

Take a look at these entries with their results.
- compound: "Cc1cc(=O)oc2c(C)c(OCC(=O)NCCN3CCOCC3)ccc12"
  activation [%]: 2.28
- compound: "Cc1c(CNCCc2ccccc2)c(C(=O)O)c(C)n1-c1ccccc1"
  activation [%]: 88.8
- compound: "CCC(c1nnnn1Cc1ccco1)N(CCc1ccccc1)Cc1cc2cccc(C)c2[nH]c1=O (stereo unspecified)"
  activation [%]: 50.2
- compound: "CCc1ccccc1S(=O)(=O)Cc1ccc(C(=O)NCCc2ccccc2)o1"
  activation [%]: 78.3
- compound: "CCCCCC(=O)NC(=S)NNC(=O)c1ccc([N+](=O)[O-])cc1"
  activation [%]: 113

Here is the next item to consider.
## Task Give reported activation value for O=C(COC(=O)Cc1ccccc1F)NCCc1ccccc1
## Result 73
